These data points were gathered from patent US8604016B2.

- Target desc: recombinant form of Glutaminase 1 (GAC) (Homo sapiens)
- Test summary: Recombinant Enzyme Assay (GAC coupled to GDH, NADH absorbance, no preincubation)
- Format: biochemical
- Assay conditions: no preincubation; read-out: GAC Delta N2 IC50 no preinc
Assay metric: IC50 (nM)

Examples with their reported IC50 follow.
O=C(CCN1CCOCC1)OCC(C(=O)Nc1nnc(CCCCc2nnc(NC(=O)C(CO)c3ccccc3)s2)s1)c1ccccc1 (stereo not shown) :: 570
CCCCOC(=O)Nc1nnc(CCCCc2nnc(NC(=O)Cc3ccccc3)s2)s1 :: 210

(I) CC(C)(C)OC(=O)N1CCN(C(C(=O)Nc2nnc(CCCCc3nnc(NC(=O)C(c4ccccc4)N4CCN(C(=O)OC(C)(C)C)CC4)s3)s2)c2ccccc2)CC1 (stereo not shown)
(II) O=C(Nc1nnc(CCCCc2nnc(NC(=O)[C@@H](O)Cc3ccccc3)s2)s1)[C@@H](O)Cc1ccccc1
# input Could you determine which record has the numerically smaller IC50? Candidates: I and II Answer with the label corresponding to your selection.
# output II
